# Target under test: T1, human recombinant Hsp90α (human, UniProt P07900 1-732)
# T1 construct: Heat shock protein 90 alpha (Hsp90α), human, recombinant; also called heat shock protein 90; source: bought: Stressgen Bioreagents
# Protocol details: SPR; Biacore 3000; biotin-TPR peptide immobilised on streptavidin (SA) chip; Hsp90 or Hsp70 (0.3, 1 or 2 μM) as analyte, 30 μl/min, 25°C, HBS-EP buffer pH 7.4
# Conditions used: both partners purified
Ends that are not written are not given here.
Value type: pKd
Recall that pKd is obtained by taking minus log10 of the concentration measured in molar.

Task: Please look up its pKd: KAYARIGNSYFK (also: biotin-conjugated, position not given here, Immobilised on a streptavidin sensor chip by its biotin; also called biotin-TPR; immobilized TPR peptide; source: synthetic peptide) [Biotin-conjugated TPR peptide]
Result: 5.85
